# Test system: U2OS
# assayProtocol: Multiplex assay against U2OS
# Format: toxicity, cell-based
# particulars: human, 12 h, 1 µM, compound concentration 1 uM, replicate 2
measuredParameter: Population Hoechst High Intensity Objects (%)
Field format: number, assumed %, no unit text.

Inquiry: Write down Population Hoechst High Intensity Objects (%) measured for item CN1CCN(c2cc(-c3ccccc3)nc(N)n2)CC1
Reply text: 1

Inquiry: Answer with the recorded Population Hoechst High Intensity Objects (%) of C[C@H](N)COC(=O)[C@@H](CCCCN)NC(=O)Cc1c(-c2ccc3ccccc3c2)[nH]c2c1ccc1ccccc12 only.
Reply text: 0

Inquiry: Give me measured Population Hoechst High Intensity Objects (%), please, for this compound: O=C(CCCc1ccccc1)Nc1nc2ccccc2c(=O)s1
Reply text: 0

Inquiry: Note Population Hoechst High Intensity Objects (%) for the compound shown: CN[C@@H](C)C(=O)N[C@H](C(=O)N1CCC[C@H]1C(=O)Nc1snnc1-c1ccccc1)C1CCCCC1
Reply text: 11

----------
# System: U2OS
# assayProtocol: Multiplex assay against U2OS
# Type: toxicity, cell-based
# particulars: human, 48 h, 10 µM, compound concentration 10 uM, replicate 2
measuredParameter: Population Pyknosed Nuclei (%)
Give the number; % is assumed, so skip it.

Examples from the recorded data:
N#Cc1c(Oc2cccc(OS(=O)(=O)CCCC(F)(F)F)c2)cccc1C(F)(F)F ... 10
COc1ccccc1N1CCN(C[C@@H](C(=O)NC(C)(C)C)c2ccccc2)CC1.Cl.Cl ... 22

Inquiry: Let me know recorded Population Pyknosed Nuclei (%) for CN(C)C(=O)Cn1cc(-c2ccc(-c3cncc4ccccc34)cc2)cn1 , thanks.
Reply text: 9

Inquiry: Specify measured Population Pyknosed Nuclei (%) for CN1CCN(c2cc(-c3ccccc3)nc(N)n2)CC1 .
Reply text: 10

Inquiry: Give the measured Population Pyknosed Nuclei (%) for Cc1noc(-c2ccc(-c3ccc(CC(=O)O)cc3)cc2)c1NC(=O)O[C@H](C)c1ccccc1Cl
Reply text: 11

----------
# maps each entry to its Population Fragmented Nuclei (%)
# Test system: HEK-293T
# assayProtocol: Multiplex assay against HEK293T
# Assay type: toxicity, cell-based
# particulars: human, 48 h, 1 µM, compound concentration 1 uM, replicate 2
Unit % implied. Number only.

// worked examples, Population Fragmented Nuclei (%) included
Cc1c(CC(=O)O)c2cccnc2n1Cc1ccc(S(C)(=O)=O)cc1C(F)(F)F [FEVIPIPRANT] ... 11
Cc1sc2c(c1C)C(c1ccc(Cl)cc1)=N[C@@H](CC(=O)NCCCCCCCCNC(=O)COc1cccc3c1C(=O)N(C1CCC(=O)NC1=O)C3=O)c1nnc(C)n1-2 (stereo not given in full) ... 9
CC(C)(C)c1cc(NC(=O)Nc2ccc(-c3cn4c(n3)sc3cc(OCCN5CCOCC5)ccc34)cc2)no1 [QUIZARTINIB] ... 10
CN[C@@H](C)C(=O)N[C@H](C(=O)N1CCC[C@H]1C(=O)Nc1snnc1-c1ccccc1)C1CCCCC1 [GDC-0152] ... 10
CC(C)COc1ccc(CNC(=O)N(Cc2ccc(F)cc2)C2CCN(C)CC2)cc1 [PIMAVANSERIN] ... 9

Inquiry: Fill in Population Fragmented Nuclei (%) for O=C(CCCc1ccccc1)Nc1nc2ccccc2c(=O)s1 tested with HEK-293T.
Reply text: 10

Inquiry: Return reported Population Fragmented Nuclei (%) for target or system HEK-293T, item Cl.NCCc1ccc(O)c(O)c1 [DOPAMINE HYDROCHLORIDE] .
Reply text: 10

Inquiry: Given COC[C@@H](c1ccc(C(F)(F)F)cc1)N1CCN(C2(C)CCN(C(=O)c3c(C)ncnc3C)CC2)C[C@@H]1C.O=C(O)/C=C\C(=O)O [VICRIVIROC MALEATE] , report its Population Fragmented Nuclei (%) on HEK-293T.
Reply text: 13

Inquiry: Report value: Population Fragmented Nuclei (%), system: HEK-293T, molecule: C[C@H](N)COC(=O)[C@@H](CCCCN)NC(=O)Cc1c(-c2ccc3ccccc3c2)[nH]c2c1ccc1ccccc12
Reply text: 11
